# Tested on: sC5b-9
# assay-overview: Complement activation in vitro (sC5b-9 levels)
# Type: cell-based
# cond: human cells contacted in vitro; in words
readout: sC5b-9 levels relative to saline

The measured sC5b-9 levels relative to saline associated with CCCCCC/C=C\COC(=O)CCCCCCCN(CCO)CCCCCCCC(=O)OC(CCCCCCCC)CCCCCCCC reads slightly decrease

The measured sC5b-9 levels relative to saline associated with CCCCCCCCCOC(=O)CCCCCCCN(CCO)CCCCCCCOC(=O)C(CCCCCCCC)CCCCCCCC reads slightly decrease

The measured sC5b-9 levels relative to saline associated with CCCCCCCCCOC(=O)CCCCCCCN(CCO)CCCCCCCC(=O)OC(CCCCCCCC)CCCCCCCC reads somewhat increase

The measured sC5b-9 levels relative to saline associated with CCCCCCCCCCCCCCCCCCN(CCO)CCCCCCCC(=O)OC(CCCCCCCC)CCCCCCCC reads slightly decrease

The measured sC5b-9 levels relative to saline associated with CCCCCCCCCOC(=O)CCCCCCCN(CCCCCCCC(=O)OC(CCCCCCCC)CCCCCCCC)CCOC(C)=O reads slightly decrease

New cases:
The measured sC5b-9 levels relative to saline associated with CCCCC/C=C\C/C=C\CCCCCCCCN(CCO)CCCCCCCC(=O)OC(CCCCCCCC)CCCCCCCC reads somewhat increase

The measured sC5b-9 levels relative to saline associated with CCCCCCCCC(CCCCCCCC)OC(=O)CCCCCCCN(CCO)CCCCCCCC(=O)OC(CCCCCCCC)CCCCCCCC reads slightly decrease
